# Tested on: OVCAR-8
# TEST SUMMARY: NCI tumour cell line growth inhibition, 48 h
Calls of active or inactive are those of the source. Cut-off read from the data, not from the text of the source: active = GI50 up to about 1.1 µM and inactive = higher.
Pick one: y for active, n for inactive

Worked cases, answers included:
COMPOUND | TEST TARGET | LABEL VALUE
O=C(/C=C1\N=C(c2ccccc2)N(c2nc3ccc(Sc4ccccc4)cc3[nH]2)C1=O)/C=C/c1ccccc1 | OVCAR-8 | n
O=C(CNc1ccc(Cl)cc1)Nn1c(-c2ccccc2)nc2ccccc2c1=O | OVCAR-8 | n
N#CC(c1cc(Cl)ncn1)c1nc2ccccc2s1 (stereo not given) | OVCAR-8 | n
O=C1C(=Cc2cccs2)C(=O)N(CCc2ccccc2)S(=O)(=O)N1CCc1ccccc1 | OVCAR-8 | n
O=C1CS/C(=N/N=C/c2cn(Cc3ccc(Cl)cc3Cl)c3ccccc23)N1 | OVCAR-8 | n

*Q* In this assay, the call recorded for Cn1c(=O)n2n(c1=O)C(S(=O)(=O)c1ccccc1)C2 (stereo not given) was what?
*A* n

*Q* In this assay, the call recorded for `N=C(N)N/N=C/c1c(-c2ccc(Cl)c([N+](=O)[O-])c2)nc2sccn12` was what?
*A* n

*Q* In this assay, the call recorded for NNC(=O)C(=O)N/N=C1\CCCC1C(=O)CCC(=O)Nc1cccc(Cl)c1 (stereo not given) was what?
*A* n

*Q* In this assay, the call recorded for CN(CCO)c1nc(=O)c2c(n1C1OC(CO)C(O)C(O)C1O)CCCC2 (stereo not given) was what?
*A* n

*Q* In this assay, the call recorded for `O=c1/c(=C/c2ccco2)sc2nc3ccccc3n12` was what?
*A* n

*Q* In this assay, the call recorded for CC[C@@]1(OC(=O)C(N)CCCCN)C(=O)OCc2c1cc1n(c2=O)Cc2cc3ccccc3nc2-1 (stereo not given in full) was what?
*A* y

*Q* In this assay, the call recorded for C=C1C(=O)OC2C=C(CCC(C)=O)C(C)C(OC(C)=O)CC12 (stereo not given) was what?
*A* n

*Q* In this assay, the call recorded for `COc1ccc(CN2C(=O)CCC/C=C\[C@H]2CI)cc1` was what?
*A* n

*Q* In this assay, the call recorded for `O=c1[nH]/c(=C/c2ccc(OCc3ccccc3)cn2)c(=O)[nH]/c1=C/c1ccc(Cl)cc1` was what?
*A* n

*Q* In this assay, the call recorded for `O=C(Nc1ccccc1C(=O)Nc1nccs1)c1ccccc1` was what?
*A* n

*Q* In this assay, the call recorded for `OCCOCCO[P+]1(OCCOCCO)n2c3ccc2C(c2ccccc2)=C2C=CC(=N2)C(c2ccccc2)=c2ccc(n21)=C(c1ccccc1)C1=NC(=C3c2ccccc2)C=C1` was what?
*A* y

*Q* In this assay, the call recorded for `COc1cccc(N2CCc3c(C)c(C#N)c4nc5ccccc5n4c32)c1` was what?
*A* n

Hey, just so you know, these numbers are from ChEMBL document CHEMBL1201862.
